Source listed as ChEMBL document CHEMBL5335797.

Entries and their measured inhibition follow.
system-tested: Transcriptional regulator MvfR (Pseudomonas aeruginosa PA14) (UniProt A0A072ZLE6)
Sequence (whole entry): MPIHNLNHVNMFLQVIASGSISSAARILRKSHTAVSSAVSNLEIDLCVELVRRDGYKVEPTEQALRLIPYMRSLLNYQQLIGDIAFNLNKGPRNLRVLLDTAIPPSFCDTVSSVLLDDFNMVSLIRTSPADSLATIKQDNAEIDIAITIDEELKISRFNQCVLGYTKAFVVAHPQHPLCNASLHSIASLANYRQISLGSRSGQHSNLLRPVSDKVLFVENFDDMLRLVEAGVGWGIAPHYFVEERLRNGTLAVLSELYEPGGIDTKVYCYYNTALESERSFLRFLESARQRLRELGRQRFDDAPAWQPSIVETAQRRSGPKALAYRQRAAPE
test-protocol: Antagonist activity at PqsR in wild-type Pseudomonas aeruginosa PAO1-L assessed as inhibition of pyocyanin level at 3 times IC50 incubated for 16 hrs by absorbance based assay relative to control
assay-context: filed as antagonist

Quick one: inhibition of CCn1c(NCC(O)COc2ccc(CC#N)cc2)nc2ccc(Cl)cc21 (stereo not drawn) ?
> 50%

Queued: CC(C)n1c(NCC(O)COc2ccc(CC#N)c(F)c2)nc2ccc(Cl)cc21 (stereo not drawn)
> 50%

Queued: COCCn1c(NCC(O)COc2ccc(CC#N)cc2)nc2ccc(Cl)cc21 (stereo not drawn)
> 50%

Queued: N#CCc1ccc(OCC(O)CNc2nc3ccc(Cl)cc3n2CCO)cc1 (stereo not drawn)
> 50%

Queued: Cn1c(NCC(O)COc2ccc(CC#N)cc2)nc2ccc(Cl)cc21 (stereo not drawn)
> 50%

Queued: N#CCc1ccc(OCC(O)CNc2nc3ccc(Cl)cc3n2C2CC2)cc1 (stereo not drawn)
> 50%

Queued: N#CCc1ccc(OCC(O)CNc2nc3ccc(Cl)cc3n2C2CCC2)cc1 (stereo not drawn)
> 50%

Queued: CC(C)n1c(NCC(O)COc2ccc(CC#N)cc2F)nc2ccc(Cl)cc21 (stereo not drawn)
> 50%
